# assay procedure: Plasma pharmacokinetics after single oral dose of Δ8-THCV in MCT oil (LC-MS/MS, non-compartmental analysis)
# Type: in vivo, human
# experimental context: human, plasma, po, 25 mg, 25 mg single oral Δ8-THCV in MCT oil; plasma; Median (Range); read-out: MRT (mean residence time)
# Protocol: The study was a two-phase, dose-ranging, placebo-controlled trial in 21 healthy participants to assess the safety, tolerability, PK, and PD of an oral formulation of Δ8-THCV. A detailed description of the study was published elsewhere. […] Plasma samples were analyzed using a validated high-performance liquid chromatography–tandem mass spectrometry (LC-MS/MS) assay. […] For the PK analysis, concentrations below the lower limit of quantification were set to 0 ng/mL. […]
Can you tell me MRT for the items I'm about to list?
Output spec: scalar in h, unitless text.

Exercise: Would you mind telling me what MRT value was observed for CCCc1cc(O)c2c(c1)OC(C)(C)[C@@H]1CC=C(C)C[C@@H]21 [Δ8-THCV, Δ8-tetrahydrocannabivarin] ?
Key: 4.2

Exercise: Okay, and `CCCc1cc(O)c2c(c1)OC(C)(C)[C@@H]1CC=C(C(=O)O)C[C@@H]21` ?
Key: 4.6

Exercise: Okay, and `CCCc1cc(O)c2c(c1)OC(C)(C)[C@@H]1CCC(C(=O)O)=C[C@@H]21` ?
Key: 4.6

Exercise: Okay, and CCCc1cc(O)c2c(c1)OC(C)(C)[C@@H]1CC=C(CO)C[C@@H]21 (racemic) [11-OH-Δ8-THCV, (±)-11-hydroxy-Δ8-THCV] ?
Key: 3.6

---

Can you tell me MRT for the items I'm about to list?
# assay procedure: Plasma pharmacokinetics after single oral dose of Δ8-THCV in MCT oil (LC-MS/MS, non-compartmental analysis)
# Assay type: in vivo, human
# experimental context: human, plasma, po, 12.5 mg, 12.5 mg single oral Δ8-THCV in MCT oil; plasma; Mean (±SD); read-out: MRT (mean residence time)
Output spec: scalar in h, unitless text.

Exercise: Would you mind telling me what MRT value was observed for CCCc1cc(O)c2c(c1)OC(C)(C)[C@@H]1CC=C(C(=O)O)C[C@@H]21 [Δ8-THCV-COOH, 11-nor-9-carboxy-Δ8-THCV] ?
Key: 4.9

Exercise: Okay, and CCCc1cc(O)c2c(c1)OC(C)(C)[C@@H]1CCC(C(=O)O)=C[C@@H]21 [Δ9-THCV-COOH, 11-nor-9-carboxy-Δ9-THCV] ?
Key: 5.1

Exercise: Okay, and CCCc1cc(O)c2c(c1)OC(C)(C)[C@@H]1CC=C(C)C[C@@H]21 [Δ8-THCV, Δ8-tetrahydrocannabivarin] ?
Key: 4

Exercise: Okay, and CCCc1cc(O)c2c(c1)OC(C)(C)[C@@H]1CC=C(CO)C[C@@H]21 (racemic) [11-OH-Δ8-THCV, (±)-11-hydroxy-Δ8-THCV] ?
Key: 1.5

---

# assay procedure: Plasma pharmacokinetics after single oral dose of Δ8-THCV in MCT oil (LC-MS/MS, non-compartmental analysis)
# Assay type: in vivo, human
# experimental context: of 504 plasma samples from 15 participants after oral Δ8-THCV
# Protocol: The study was a two-phase, dose-ranging, placebo-controlled trial in 21 healthy participants to assess the safety, tolerability, PK, and PD of an oral formulation of Δ8-THCV. A detailed description of the study was published elsewhere. […] Plasma samples were analyzed using a validated high-performance liquid chromatography–tandem mass spectrometry (LC-MS/MS) assay. […] For the PK analysis, concentrations below the lower limit of quantification were set to 0 ng/mL. […]
measured property: number of positive plasma samples
// print number alone

Exercise: Would you mind telling me what number of positive plasma samples value was observed for CCCc1cc(O)c2c(c1)OC(C)(C)[C@@H]1CCC(C(=O)O)=C[C@@H]21 [Δ9-THCV-COOH, 11-nor-9-carboxy-Δ9-THCV] ?
Key: 260

Exercise: Okay, and CCCCCc1cc(O)c2c(c1)OC(C)(C)[C@@H]1CC=C(C(=O)O)CC21 (single isomer, unassigned; (+)) [Δ8-THC-COOH, (+)-11-nor-Δ8-THC-9-carboxylic acid] ?
Key: 49

---

Can you tell me concentration at 0.5 h for the items I'm about to list?
# assay procedure: Plasma pharmacokinetics after single oral dose of Δ8-THCV in MCT oil (LC-MS/MS, non-compartmental analysis)
# Type: in vivo, human
# experimental context: human, plasma, oral, 12.5 mg, 0.5 h; 12.5 mg Δ8-THCV dose; Median (IQ Range)
# Protocol: The study was a two-phase, dose-ranging, placebo-controlled trial in 21 healthy participants to assess the safety, tolerability, PK, and PD of an oral formulation of Δ8-THCV. A detailed description of the study was published elsewhere. […] Plasma samples were analyzed using a validated high-performance liquid chromatography–tandem mass spectrometry (LC-MS/MS) assay. […] For the PK analysis, concentrations below the lower limit of quantification were set to 0 ng/mL. […]
Output spec: scalar in ng/mL, unitless text.

Exercise: Would you mind telling me what concentration at 0.5 h value was observed for `CCCc1cc(O)c2c(c1)OC(C)(C)[C@@H]1CCC(C(=O)O)=C[C@@H]21` ?
Key: 0

Exercise: Okay, and CCCc1cc(O)c2c(c1)OC(C)(C)[C@@H]1CC=C(C)C[C@@H]21 [Δ8-THCV, Δ8-tetrahydrocannabivarin] ?
Key: 0

Exercise: Okay, and CCCc1cc(O)c2c(c1)OC(C)(C)[C@@H]1CCC(C)=C[C@@H]21 [Δ9-THCV, Δ9-tetrahydrocannabivarin] ?
Key: 0

---

# assay procedure: Plasma pharmacokinetics after single oral dose of Δ8-THCV in MCT oil (LC-MS/MS, non-compartmental analysis)
# Assay type: in vivo, human
# experimental context: Predose; 200 mg Δ8-THCV dose; Mean (SD, %CV)
Can you tell me plasma concentration for the items I'm about to list?

Exercise: Would you mind telling me what plasma concentration value was observed for CCCc1cc(O)c2c(c1)OC(C)(C)[C@@H]1CC=C(C)C[C@@H]21 [Δ8-THCV, Δ8-tetrahydrocannabivarin] ?
Key: 0 (±0, --) ng/mL

Exercise: Okay, and CCCc1cc(O)c2c(c1)OC(C)(C)[C@@H]1CC=C(C(=O)O)C[C@@H]21 [Δ8-THCV-COOH, 11-nor-9-carboxy-Δ8-THCV] ?
Key: 0.1 (±0.3, 387) ng/mL

Exercise: Okay, and CCCc1cc(O)c2c(c1)OC(C)(C)[C@@H]1CCC(C(=O)O)=C[C@@H]21 [Δ9-THCV-COOH, 11-nor-9-carboxy-Δ9-THCV] ?
Key: 0 (±0, --) ng/mL

Exercise: Okay, and CCCCCc1cc(O)c2c(c1)OC(C)(C)[C@@H]1CC=C(C(=O)O)CC21 (single isomer, unassigned; (+)) [Δ8-THC-COOH, (+)-11-nor-Δ8-THC-9-carboxylic acid] ?
Key: 0 (±0, --) ng/mL

Exercise: Okay, and CCCc1cc(O)c2c(c1)OC(C)(C)[C@@H]1CC=C(CO)C[C@@H]21 (racemic) [11-OH-Δ8-THCV, (±)-11-hydroxy-Δ8-THCV] ?
Key: 0 (±0, --) ng/mL

Exercise: Okay, and CCCc1cc(O)c2c(c1)OC(C)(C)[C@@H]1CCC(C)=C[C@@H]21 [Δ9-THCV, Δ9-tetrahydrocannabivarin] ?
Key: 0 (±0, --) ng/mL

---

Can you tell me plasma concentration for the items I'm about to list?
# assay procedure: Plasma pharmacokinetics after single oral dose of Δ8-THCV in MCT oil (LC-MS/MS, non-compartmental analysis)
# Assay type: in vivo, human
# experimental context: Predose; 50 mg Δ8-THCV dose; Median (IQ Range)

Exercise: Would you mind telling me what plasma concentration value was observed for CCCc1cc(O)c2c(c1)OC(C)(C)[C@@H]1CC=C(C)C[C@@H]21 [Δ8-THCV, Δ8-tetrahydrocannabivarin] ?
Key: 0 (0–0) ng/mL

Exercise: Okay, and `CCCc1cc(O)c2c(c1)OC(C)(C)[C@@H]1CCC(C(=O)O)=C[C@@H]21` ?
Key: 0 (0–0) ng/mL

Exercise: Okay, and CCCCCc1cc(O)c2c(c1)OC(C)(C)[C@@H]1CC=C(C(=O)O)CC21 (single isomer, unassigned; (+)) [Δ8-THC-COOH, (+)-11-nor-Δ8-THC-9-carboxylic acid] ?
Key: 0 (0–0) ng/mL

---

# assay procedure: Plasma pharmacokinetics after single oral dose of Δ8-THCV in MCT oil (LC-MS/MS, non-compartmental analysis)
# Format: in vivo, human
# experimental context: human, plasma, oral, 25 mg, 4 h; 25 mg Δ8-THCV dose; Mean (SD, %CV)
measured property: concentration at 4 h (ng/mL)
Output spec: scalar in ng/mL, unitless text.

Exercise: Would you mind telling me what concentration at 4 h value was observed for CCCc1cc(O)c2c(c1)OC(C)(C)[C@@H]1CC=C(CO)C[C@@H]21 (racemic) [11-OH-Δ8-THCV, (±)-11-hydroxy-Δ8-THCV] ?
Key: 0.2

Exercise: Okay, and `CCCc1cc(O)c2c(c1)OC(C)(C)[C@@H]1CC=C(C(=O)O)C[C@@H]21` ?
Key: 136

Exercise: Okay, and CCCCCc1cc(O)c2c(c1)OC(C)(C)[C@@H]1CC=C(C(=O)O)CC21 (single isomer, unassigned; (+)) [Δ8-THC-COOH, (+)-11-nor-Δ8-THC-9-carboxylic acid] ?
Key: 0

Exercise: Okay, and CCCc1cc(O)c2c(c1)OC(C)(C)[C@@H]1CC=C(C)C[C@@H]21 [Δ8-THCV, Δ8-tetrahydrocannabivarin] ?
Key: 1.8

Exercise: Okay, and CCCc1cc(O)c2c(c1)OC(C)(C)[C@@H]1CCC(C)=C[C@@H]21 [Δ9-THCV, Δ9-tetrahydrocannabivarin] ?
Key: 0

Exercise: Okay, and `CCCc1cc(O)c2c(c1)OC(C)(C)[C@@H]1CCC(C(=O)O)=C[C@@H]21` ?
Key: 3.7

The values you see were collected from paper PMC11676667.
